Where do these numbers come from? They come from patent US9464077B2.

- System: FGFR3-TACC3_v3 (N-FLAG) fusion polypeptide
- protocol description: In vitro kinase activity inhibition (HTRF KinEASE-TK)
- Type: biochemical, human
- test parameters: 1 nM, 100 μM ATP
measured quantity: rate of inhibiting kinase activity v3 (%)
Record the value in %, omitting the unit from your answer.

## Task Need rate of inhibiting kinase activity v3, item COc1cc(OC)c(F)c(COc2cnc(Nc3cc(CN4CCN(C)CC4)n(C)n3)nc2)c1F
## Result 30

## Task Need rate of inhibiting kinase activity v3, item COc1cc(OC)c(F)c(COc2cnc(Nc3cnn(C[C@@H](O)CO)c3)nc2)c1F
## Result 41

## Task Need rate of inhibiting kinase activity v3, item COc1cc(OC)c(F)c(COc2cnc(Nc3ccc(N4CCN(C)CC4)cc3)nc2)c1F
## Result 45

## Task Need rate of inhibiting kinase activity v3, item COc1cc(OC)c(F)c(COc2cnc(Nc3ccc(N4CCC(NCCO)CC4)cc3)nc2)c1F
## Result 47
